target: Gal(b1-4)GalNAc(a1-3)[Fuc(a1-2)]Gal(b1-4)GlcNAc; assay: glycan array binding signal (z-score within array); higher = stronger binding; conditions: glycan notation: IUPAC condensed, linker removed
The entries come from a sample that favours the strongest signals as a whole.
# glycan array binding signal (z-score) listing for each entry below

| BINDER | glycan array binding signal (z-score) |
| --- | --- |
| Crocus Lectin (Crocus vernus), Q9FVA1 (protein) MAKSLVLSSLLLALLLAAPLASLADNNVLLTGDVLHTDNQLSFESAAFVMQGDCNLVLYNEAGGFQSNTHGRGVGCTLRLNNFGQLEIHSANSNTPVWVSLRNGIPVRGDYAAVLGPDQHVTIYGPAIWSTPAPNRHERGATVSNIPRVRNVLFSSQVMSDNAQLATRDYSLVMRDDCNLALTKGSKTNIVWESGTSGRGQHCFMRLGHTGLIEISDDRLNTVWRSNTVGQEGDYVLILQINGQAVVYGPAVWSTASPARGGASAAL | -0.195 |
| XTP3-B-MRH1 (Homo sapiens), Q96DZ1 (protein) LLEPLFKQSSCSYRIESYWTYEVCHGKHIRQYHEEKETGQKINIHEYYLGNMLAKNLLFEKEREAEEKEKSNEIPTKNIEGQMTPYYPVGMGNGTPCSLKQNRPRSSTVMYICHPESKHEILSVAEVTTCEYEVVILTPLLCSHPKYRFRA | -0.41 |
